Source: patent US8404647B2

Molecular target: PAD4 (Homo sapiens, UniProt Q9UM07)
Sequence (Q9UM07 whole entry): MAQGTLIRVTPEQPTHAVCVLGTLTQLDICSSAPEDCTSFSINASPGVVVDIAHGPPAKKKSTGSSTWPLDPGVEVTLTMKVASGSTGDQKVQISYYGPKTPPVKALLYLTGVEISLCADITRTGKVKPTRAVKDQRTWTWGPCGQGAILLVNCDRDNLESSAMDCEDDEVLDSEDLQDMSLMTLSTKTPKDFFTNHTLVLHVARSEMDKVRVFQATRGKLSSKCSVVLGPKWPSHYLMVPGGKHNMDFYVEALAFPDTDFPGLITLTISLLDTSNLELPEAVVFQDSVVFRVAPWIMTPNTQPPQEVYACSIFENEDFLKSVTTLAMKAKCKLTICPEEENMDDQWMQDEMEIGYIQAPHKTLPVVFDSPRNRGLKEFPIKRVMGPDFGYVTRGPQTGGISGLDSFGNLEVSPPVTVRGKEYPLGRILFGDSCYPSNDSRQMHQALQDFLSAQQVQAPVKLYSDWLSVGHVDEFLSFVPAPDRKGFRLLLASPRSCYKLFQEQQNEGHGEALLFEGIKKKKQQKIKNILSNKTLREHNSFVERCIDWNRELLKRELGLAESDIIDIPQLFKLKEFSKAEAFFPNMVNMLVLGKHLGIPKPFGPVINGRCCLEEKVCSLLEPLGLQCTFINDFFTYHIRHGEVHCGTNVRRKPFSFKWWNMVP
Test: Conversion (R to Cit) of substrate peptides by PAD4, mass spectrometry
Type: biochemical
Details: Table 10
Ends that are not written are not given here.
measure: Conversion by PAD4 (%)
Just so you know, I need the unit written after the number.

Study these solved cases before continuing.
{"substance": "F-F-D-S-K-H-K-S-R-D-F-V-Y-S-D (FFDSKHKSRDFVYSD) [Peptide 0612-29]", "val": "77%"}
{"substance": "D-S-K-K-Y-D-R-G-F-L-W-S-D (DSKKYDRGFLWSD; not fully specified (C-terminus); printed as D-S-K-K-Y-D-R-G-F-L-W-S-D) [Peptide 0708-34]", "val": "81%"}
{"substance": "F-F-D-S-K-H-L-S-R-E-W-M-W-S-D (FFDSKHLSREWMWSD) [Peptide 0612-26]", "val": "73%"}
{"substance": "D-S-K-K-K-H-R-E-W-V-W-S-D (DSKKKHREWVWSD; not fully specified (C-terminus); printed as D-S-K-K-K-H-R-E-W-V-W-S-D) [Peptide 0608-32]", "val": "72%"}
{"substance": "D-S-K-K-F-H-R-D-F-L-Y-S-D (DSKKFHRDFLYSD; not fully specified (C-terminus); printed as D-S-K-K-F-H-R-D-F-L-Y-S-D) [Peptide 0708-25]", "val": "64%"}

Let us examine a further case.
// sample D-S-K-K-F-D-R-D-H-L-Y-S-D (DSKKFDRDHLYSD; not fully specified (C-terminus); printed as D-S-K-K-F-D-R-D-H-L-Y-S-D) [Peptide 0708-15] , its Conversion by PAD4 (%) was 77%
